// data source = paper PMC9463526

# measurement-notes: Analyte stability in brain homogenate
# Type: physicochemical, human
# test-parameters: 6 h, HQC 400.0 nM
measure-name: Benchtop stability, Accuracy (%)

CCN1CCN(Cc2ccc(Nc3ncc(F)c(-c4cc(F)c5nc(C)n(C(C)C)c5c4)n3)nc2)CC1
97.3
Cc1nc2c(F)cc(-c3nc(Nc4ccc(CN5CCNCC5)cn4)ncc3F)cc2n1C(C)C
97.0
CCN1CCN(Cc2ccc(Nc3ncc(F)c(-c4cc(F)c5nc(CO)n(C(C)C)c5c4)n3)nc2)CC1
93.7
Cn1nccc1Nc1nccc(-c2cc3c(s2)C(C)(C)N(CCN2CCOCC2)C3=O)n1
101.7

###

# measurement-notes: Equilibrium dialysis, fraction unbound in patient brain tumor tissue
# Assay type: in vitro ADME
# test-parameters: human, pH 7.4, gadolinium contrast enhancing GBM region, five patients; 16 h equilibrium dialysis; read-out: Fraction unbound (fu), GBM (E)
measure-name: fraction unbound at 16 h

Worked examples follow.
CCN1CCN(Cc2ccc(Nc3ncc(F)c(-c4cc(F)c5nc(C)n(C(C)C)c5c4)n3)nc2)CC1
0.014
Cn1nccc1Nc1nccc(-c2cc3c(s2)C(C)(C)N(CCN2CCOCC2)C3=O)n1
0.109

[A] CCN1CCN(Cc2ccc(Nc3ncc(F)c(-c4cc(F)c5nc(CO)n(C(C)C)c5c4)n3)nc2)CC1
[B] Cc1nc2c(F)cc(-c3nc(Nc4ccc(CN5CCNCC5)cn4)ncc3F)cc2n1C(C)C
# argmax over fraction unbound at 16 h for candidates A and B Output the label that corresponds to your choice.
A

###

# measurement-notes: Analyte stability in brain homogenate
# Type: physicochemical, human
# test-parameters: 6 h, LQC 0.6 nM, vs freshly processed QC
measure-name: Benchtop stability, Difference (%)

Worked examples follow.
Cn1nccc1Nc1nccc(-c2cc3c(s2)C(C)(C)N(CCN2CCOCC2)C3=O)n1
0.2
Cc1nc2c(F)cc(-c3nc(Nc4ccc(CN5CCNCC5)cn4)ncc3F)cc2n1C(C)C
6.9

[I] CCN1CCN(Cc2ccc(Nc3ncc(F)c(-c4cc(F)c5nc(C)n(C(C)C)c5c4)n3)nc2)CC1
[II] CCN1CCN(Cc2ccc(Nc3ncc(F)c(-c4cc(F)c5nc(CO)n(C(C)C)c5c4)n3)nc2)CC1
Problem: Given the entries I and II , determine which has the lower reported Benchtop stability, Difference. Output the label that corresponds to your choice.
II

###

# measurement-notes: Analyte stability in brain homogenate
# Format: physicochemical, human
# test-parameters: 96 h, LQC 0.6 nM, vs freshly processed QC
measure-name: Autosampler stability (5 °C), Difference (%)

Worked examples follow.
CCN1CCN(Cc2ccc(Nc3ncc(F)c(-c4cc(F)c5nc(C)n(C(C)C)c5c4)n3)nc2)CC1 [Abemaciclib]
13.8
Cc1nc2c(F)cc(-c3nc(Nc4ccc(CN5CCNCC5)cn4)ncc3F)cc2n1C(C)C [M2]
13.5

[1] CCN1CCN(Cc2ccc(Nc3ncc(F)c(-c4cc(F)c5nc(CO)n(C(C)C)c5c4)n3)nc2)CC1 [M20]
[2] Cn1nccc1Nc1nccc(-c2cc3c(s2)C(C)(C)N(CCN2CCOCC2)C3=O)n1 [LY3214996]
Problem: Given the entries 1 and 2 , determine which has the lower reported Autosampler stability (5 °C), Difference. Output the label that corresponds to your choice.
2

###

# measurement-notes: Analyte stability in brain homogenate
# Type: physicochemical, human
# test-parameters: 39 days, HQC 400.0 nM, vs freshly processed QC
measure-name: Long-term stability (−20 °C), Difference (%)

CCN1CCN(Cc2ccc(Nc3ncc(F)c(-c4cc(F)c5nc(CO)n(C(C)C)c5c4)n3)nc2)CC1 [M20]
4.5

[I] CCN1CCN(Cc2ccc(Nc3ncc(F)c(-c4cc(F)c5nc(C)n(C(C)C)c5c4)n3)nc2)CC1 [Abemaciclib]
[II] Cn1nccc1Nc1nccc(-c2cc3c(s2)C(C)(C)N(CCN2CCOCC2)C3=O)n1 [LY3214996]
[III] Cc1nc2c(F)cc(-c3nc(Nc4ccc(CN5CCNCC5)cn4)ncc3F)cc2n1C(C)C [M2]
Task for the reader: rank each entry by its Long-term stability (−20 °C), Difference, from the minimum upward. Output spec: a listing of the labels in the requested order.
III, I, II
(III: −4.8%, I: −1.5%, II: 3.5%)
